From: patent US20220204611A1

Target: T1, human TREM2 (human, UniProt Q9NZC2 19-174, limits assumed)
T1 sequence: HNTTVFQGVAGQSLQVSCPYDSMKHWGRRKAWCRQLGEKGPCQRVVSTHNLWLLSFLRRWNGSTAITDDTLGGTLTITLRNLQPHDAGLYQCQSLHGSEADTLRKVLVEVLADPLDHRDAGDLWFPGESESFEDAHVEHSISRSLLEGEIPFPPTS
Test: yeast-displayed Fab FACS, 1st screen 110 nM
MEASURED PARAMETER: binding signal fold over 6E7 parental (fold)
Return type: number; implicit unit fold.

* V58 (Fab, V domains shown) VH: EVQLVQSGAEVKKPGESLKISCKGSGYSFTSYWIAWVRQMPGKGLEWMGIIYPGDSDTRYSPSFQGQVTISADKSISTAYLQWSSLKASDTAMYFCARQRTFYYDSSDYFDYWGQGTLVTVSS VL: DIQMTQSPSSVSASVGDRVTITCRASQGISSWLAWYQQKPGKAPKLLIYKASSLQNGVPSRFSGSGSGTDFTLTISSLQPEDFATYFCQQADSFPRTFGQGTKLEIK | 0.28

Enquiry: Param item = V18 (Fab, V domains shown) VH: EVQLVQSGAEVKKPGESLKISCKGSGYSFTSYHIAWVRQMPGKGLEWMGIIYPGDSDTRYSPSFQGQVTISADKSISTAYLQWSSLKASDTAMYFCARQRTFYYDSSDYFDYWGQGTLVTVSS VL: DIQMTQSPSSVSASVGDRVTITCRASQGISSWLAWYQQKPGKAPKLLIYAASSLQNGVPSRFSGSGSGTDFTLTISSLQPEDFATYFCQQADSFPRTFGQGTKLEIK ; retrieve measured binding signal fold over 6E7 parental.
Return: 0.17
